Tested on: PXR homodimer (NR concentration 270 nM)
ASSAY_INFO: PBM binding z-score (relative to random genomic background probes); higher = stronger binding; sequences stand for … in GC…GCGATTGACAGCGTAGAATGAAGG
Label false (0) if PBM binding z-score falls below 0.1; label true (1) in every other case.

Tell me whether PBM binding z-score is at least 0.1 here: `AATACAGGGTCACTAGGCCAGAGTTGGTACGAAT`
true (1)

Can `AGTCAAAGTTAATCTAGGTAACGTAAGATATGCT` be said to have PBM binding z-score at or above 0.1?
true (1)

Assess whether reported PBM binding z-score for `CTCGATAGGTCGGTTGAGGTGAGTATACGGATAA` sits at 0.1 or higher.
true (1)

Would you say `CCTACTGGGCCATTCAGAGTTCATTGATCATATG` shows PBM binding z-score at minimum 0.1?
true (1)

Item `CAAACTAGGTCAAGGTCAAAGCCGGTTTGTGCCA` with PBM binding z-score of 0.1 or above?
true (1)
